protocolNotes: NCI Yeast Anticancer Drug Screen. Data for the bub3 strain (AID 167)
conditionLabel: S. cerevisiae bub3 mutant strain, at 50.0 µM, hits give high values
About 79,000 compounds went through this panel and 15% of them were active in at least one assay; those are over-represented in the sample as a whole.
Lab note: anything with growth inhibition at or over -10% counts as true (1); the rest go in false (0).

1) C=CCNC(=O)/C(C)=C(\C)c1ccc(F)cc1 = true (1)
2) N#CC(C#N)=CNC(N)=S = false (0)
3) Nc1ccc(Nc2cc(=O)[nH]c(=O)[nH]2)cc1Cl = true (1)
4) Clc1ccc(Nc2ncnc3oc(-c4ccccc4)c(-c4ccccc4)c23)cc1 = true (1)
5) COC1(OC)CCCc2c1no[n+]2[O-] = true (1)
6) CC(=O)N(C)c1ccc(Nc2cc(S(=O)(=O)O)c(N)c3c2C(=O)c2ccccc2C3=O)cc1 = false (0)
7) CC(C)=NNC=N/C(C#N)=C(\N)C#N = true (1)
8) O=C(O)CCc1ccc2ccccc2n1 = false (0)

Is growth inhibition for Fc1ccccc1/C=C/c1cnnc2ccccc12 at or above -10%?
true (1)

Is growth inhibition for O=C1OC2c3ccccc3C3CC(=O)C2C13 (configuration not stated) at or above -10%?
true (1)

Assess whether reported growth inhibition for CCOc1cc2c(cc1C(C)c1ccc(OCc3ccccc3)cc1)OCO2 (configuration not stated) sits at -10% or higher.
true (1)

Hi team, for COc1ccc2nc(C3CCCCC3C(=O)O)cc(C)c2c1 (configuration not stated) , is the recorded growth inhibition at or above -10%?
true (1)

---

We begin with a simple list: items and their reported growth inhibition.
protocolNotes: NCI Yeast Anticancer Drug Screen. Data for the mlh1 rad18 strain (AID 175)
conditionLabel: S. cerevisiae mlh1 rad18 strain growth inhibition; at 50.0 µM; hits give high values
About 79,000 compounds went through this panel and 15% of them were active in at least one assay; those are over-represented in the sample as a whole.
Write down the numeric answer in % and omit the unit.

Some compounds with known growth inhibition results, for comparison:
1. O=C(SCSC(=O)c1ccccc1)c1ccccc1 = 2
2. CCN=C1Nc2ccccc2-n2c(nn3nc4ccccc4c23)N1CC = -51.7
3. CC(=O)CC(=O)C1CCC(C(=O)CC(C)=O)CC1 (stereo unspecified) = -13.2
4. CCOC(=O)C(/C=C/c1cc(C)c(C)c(C)c1)(NC=O)C(=O)OCC = -1.3

Fill blank: measured growth inhibition of the compound O=C(/C=C/C(=O)NCCc1ccccc1)NCCc1ccccc1 is ____.
17.4

Looking for the measured growth inhibition of CCCCOC(=O)CNC(=O)c1ccc(C)c(OCc2ccccc2)c1[N+](=O)[O-] , can you help?
-17.6

State the recorded growth inhibition for this entry: CC(C)=NNC=N/C(C#N)=C(\N)C#N
-24.7

I'd like to know its growth inhibition. The compound in question is CCOC(=O)C(N=Nc1ccc(S(N)(=O)=O)cc1)C(C)=O (stereo unspecified)
16.1

What does the data say about its growth inhibition? Entry: Cc1ccc(N=C2c3cc([N+](=O)[O-])ccc3-c3ccc([N+](=O)[O-])cc32)cc1
-2.25

# get_value(readout='growth inhibition', item= O=C1CCCC2=C1CC1=C(CCCC1=O)N2c1ccc([N+](=O)[O-])cc1 )
-19.3

Would you kindly share the measured growth inhibition for CC(/C=N/Nc1ccccc1)=N\N=c1/scc(-c2ccc(Cl)cc2)n1-c1ccc(Cl)cc1 ?
27.9
